I'd appreciate it if you could supply EC50 hGlucagonR (cAMP formation) values for the items below.
biological target: human glucagon receptor (human, UniProt P47871 26-477); experiment: cell-based or functional assay
Sequence (P47871 26-477): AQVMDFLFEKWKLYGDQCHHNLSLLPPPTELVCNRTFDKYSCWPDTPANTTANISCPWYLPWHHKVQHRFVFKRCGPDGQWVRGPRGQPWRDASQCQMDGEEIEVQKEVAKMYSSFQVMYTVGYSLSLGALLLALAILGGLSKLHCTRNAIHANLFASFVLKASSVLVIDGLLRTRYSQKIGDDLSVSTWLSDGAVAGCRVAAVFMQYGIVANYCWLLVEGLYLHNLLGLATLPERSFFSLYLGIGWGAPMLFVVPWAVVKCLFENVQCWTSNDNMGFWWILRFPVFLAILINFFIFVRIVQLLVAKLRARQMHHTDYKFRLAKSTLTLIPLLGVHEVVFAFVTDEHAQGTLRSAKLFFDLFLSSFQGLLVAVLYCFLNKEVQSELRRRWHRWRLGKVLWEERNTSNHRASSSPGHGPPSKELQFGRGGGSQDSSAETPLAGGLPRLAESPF
*1 amine or outer side, *2 acyl side, *3 side chain or, on linkers, in order; H or OH if unused. Where no end group is shown, it is not given here. Side-chain parts run from the residue outwards. [ ]: non-standard residue; d: D form. The star is where a group is joined. γGlu = O=C(O)[C@H](CCC(=O)[*:2])N[*:1]; Palmitoyl = CCCCCCCCCCCCCCCC(=O)*; Aib = CC(C)(N)C(=O)O
Give bare numbers, in nM.

Consider the worked cases shown below.
{"binder": "HGQGTFTSDLSKQMDSRRAQDFIEWLKNGGPSSGAPPPS-NH2 [SEQ ID NO: (11)]", "EC50 hGlucagonR (cAMP formation) [nM]": 2.32}
{"binder": "HSQGTFTSDLSKQMEEERAKDFIEWLKNGGPSSGAPPPS-NH2 [SEQ ID NO: (17)]", "EC50 hGlucagonR (cAMP formation) [nM]": 3.36}
{"binder": "H[dS]QGTFTSDLSKQMESRRAQDFIEWLK[Aib]GGPSSGAPPPSK([γGlu-Palmitoyl])-NH2 [SEQ ID NO: (73)]", "EC50 hGlucagonR (cAMP formation) [nM]": 0.0212}

// for each binder below, give its EC50 hGlucagonR (cAMP formation)
1. H[dS]QGTFTSDLSKQMESRRAQDFIEWLK[Aib]GGPSSGAPPPK(Palmitoyl)-NH2 [SEQ ID NO: (81)]
2. HSQGTFTSDLSKQMDSRAAQLFIEWLKNGGPSSGAPPPS-NH2 [SEQ ID NO: (22)]
3. H[dS]QGTFTSDLSKQMESRRAQDFIEWLKSGGPSSGAPPPSK([γGlu-tocopheryl‑succinyl])-NH2 [SEQ ID NO: (86)]

0.0293
0.127
0.0218
